# Lookup of reported pIC50 keyed by entry
TGT: HIV-1 protease (Human immunodeficiency virus type 1 group M subtype B, UniProt P04585)
Construct: Recombinant HIV-1 protease (>96% purity); purchased Bachem Bioscience Inc. (King of Prussia, PA)
METHOD SUMMARY: biochemical
CONDITION INFO: 6.0 nM HIV-1 protease, 40 μM substrate III, 37° C., 5 minutes; read-out: Inhib of HIV-Protease IC50
pIC50: −log10 of the molar value.

>  <COMPOUND>
Cc1cc(SC2=C(O)CC(CCc3ccc(N)cc3C)(C3CCCCC3)OC2=O)c(C(C)(C)C)cc1CO (stereo not shown)

>  <pIC50>
8.36

$$$$
>  <COMPOUND>
Cc1cc(SC2=C(O)CC(CCc3ccccc3)(c3ccc(OCCN4CCNCC4)cc3)OC2=O)c(C(C)(C)C)cc1OS(=O)(=O)N(C)C (stereo not shown)

>  <pIC50>
8.29

$$$$
>  <COMPOUND>
CCNS(=O)(=O)Oc1cc(C(C)(C)C)c(SC2=C(O)CC(C)(CCc3ccc(O)cc3)OC2=O)cc1C (racemic)

>  <pIC50>
8.64

$$$$
>  <COMPOUND>
Cc1cc(SC2=C(O)CC(CCc3ccc(N)cc3)(C(C)C)OC2=O)c(C(C)(C)C)cc1OS(=O)(=O)c1ccc(C#N)cc1 (stereo not shown)

>  <pIC50>
8.89

$$$$
>  <COMPOUND>
Cc1cc(SC2=C(O)C[C@@](CCc3ccccc3)(c3ccccc3)OC2=O)c(C(C)(C)C)cc1CO

>  <pIC50>
8.41

$$$$
>  <COMPOUND>
Cc1cc(SC2=C(O)CC(C)(CCc3ccc(O)cc3)OC2=O)c(C(C)(C)C)cc1OS(N)(=O)=O (stereo not shown)

>  <pIC50>
8.74

$$$$
>  <COMPOUND>
CCNS(=O)(=O)Oc1cc(C(C)(C)C)c(SC2=C(O)CC(CCc3ccc(O)cc3)(CCc3ccc(O)cc3)OC2=O)cc1C

>  <pIC50>
8.89

$$$$

###

METHOD SUMMARY: Cellular toxicity in uninfected CEM cells (TC50)
Type: cell-based
CONDITION INFO: human, inhibits 50% of the viability of uninfected cells
Listed here are compounds together with their documented CC50.

>  <COMPOUND>
Cc1cc(SC2=C(O)CC(CCc3ccc(N)cc3C)(C3CCCCC3)OC2=O)c(C(C)(C)C)cc1CO (stereo not shown)

>  <CC50>
66 µM

$$$$
>  <COMPOUND>
Cc1cc(SC2=C(O)C[C@@](CCc3cccc(O)c3)(C3CCCC3)OC2=O)c(C(C)(C)C)cc1CO

>  <CC50>
> 100 µM

$$$$
>  <COMPOUND>
Cc1cc(SC2=C(O)CC(CCc3ccccc3)(c3ccc(OCCN4CCNCC4)cc3)OC2=O)c(C(C)(C)C)cc1OS(=O)(=O)N(C)C (stereo not shown)

>  <CC50>
> 100 µM

$$$$
>  <COMPOUND>
CCNS(=O)(=O)Oc1cc(C(C)(C)C)c(SC2=C(O)CC(CCc3ccc(O)cc3)(CCc3ccc(O)cc3)OC2=O)cc1C

>  <CC50>
67 µM

$$$$

###

Overview of reported CC50 across a group of compounds:
METHOD SUMMARY: Cellular toxicity in uninfected CEM cells (TC50)
Format: cell-based
CONDITION INFO: human, inhibits 50% of the viability of uninfected cells
RECORDED ENDPOINT: CC50 (µM)

>  <COMPOUND>
Cc1cc(SC2=C(O)CC(C)(CCc3ccc(O)cc3)OC2=O)c(C(C)(C)C)cc1OCCO (racemic)

>  <RECORDED ENDPOINT>
CC50

>  <RESULT UNITS>
µM

>  <SIGN QUALIFIER>
>

>  <RECORDED NUMBER>
100

$$$$
>  <COMPOUND>
Cc1cc(SC2=C(O)CC(CCc3ccc(O)cc3)(C(C)C)OC2=O)c(C(C)(C)C)cc1CO (racemic)

>  <RECORDED ENDPOINT>
CC50

>  <RESULT UNITS>
µM

>  <SIGN QUALIFIER>
>

>  <RECORDED NUMBER>
100

$$$$
>  <COMPOUND>
Cc1cc(SC2=C(O)CC(C)(CCc3ccc(O)cc3)OC2=O)c(C(C)(C)C)cc1NC(=O)c1ccc(C#N)cc1 (centres unmarked)

>  <RECORDED ENDPOINT>
CC50

>  <RESULT UNITS>
µM

>  <SIGN QUALIFIER>
>

>  <RECORDED NUMBER>
100

$$$$
>  <COMPOUND>
Cc1cc(SC2=C(O)CC(CCc3cccc(O)c3)(c3ccccc3)OC2=O)c(C(C)(C)C)cc1CO (centres unmarked)

>  <RECORDED ENDPOINT>
CC50

>  <RESULT UNITS>
µM

>  <SIGN QUALIFIER>
>

>  <RECORDED NUMBER>
100

$$$$
>  <COMPOUND>
Cc1cc(CCC2(C(C)C)CC(O)=C(Sc3cc(C)c(CO)cc3C(C)(C)C)C(=O)O2)ccc1O (centres unmarked)

>  <RECORDED ENDPOINT>
CC50

>  <RESULT UNITS>
µM

>  <SIGN QUALIFIER>
=

>  <RECORDED NUMBER>
84

$$$$
>  <COMPOUND>
Cc1cc(SC2=C(O)CC(C)(CCc3ccc(O)cc3)OC2=O)c(C(C)(C)C)cc1OS(=O)(=O)N1CCN(C)CC1 (centres unmarked)

>  <RECORDED ENDPOINT>
CC50

>  <RESULT UNITS>
µM

>  <SIGN QUALIFIER>
>

>  <RECORDED NUMBER>
100

$$$$
>  <COMPOUND>
Cc1cc(SC2=C(O)CC(CCc3ccc(O)cc3)(c3ccccc3)OC2=O)c(C(C)(C)C)cc1CO (centres unmarked)

>  <RECORDED ENDPOINT>
CC50

>  <RESULT UNITS>
µM

>  <SIGN QUALIFIER>
>

>  <RECORDED NUMBER>
100

$$$$
>  <COMPOUND>
Cc1cc(SC2=C(O)CC(CCc3ccc(O)cc3)(C(C)C)OC2=O)c(C(C)(C)C)cc1OCCO (racemic)

>  <RECORDED ENDPOINT>
CC50

>  <RESULT UNITS>
µM

>  <SIGN QUALIFIER>
=

>  <RECORDED NUMBER>
66

$$$$
>  <COMPOUND>
Cc1cc(SC2=C(O)CC(C)(CCc3ccc(O)cc3)OC2=O)c(C(C)(C)C)cc1OS(=O)(=O)N(C)C (racemic)

>  <RECORDED ENDPOINT>
CC50

>  <RESULT UNITS>
µM

>  <SIGN QUALIFIER>
=

>  <RECORDED NUMBER>
71

$$$$
>  <COMPOUND>
CCNS(=O)(=O)Oc1cc(C(C)(C)C)c(SC2=C(O)CC(CCc3ccc(O)cc3)(C3CCN(C(C)=O)CC3)OC2=O)cc1C (centres unmarked)

>  <RECORDED ENDPOINT>
CC50

>  <RESULT UNITS>
µM

>  <SIGN QUALIFIER>
>

>  <RECORDED NUMBER>
100

$$$$
>  <COMPOUND>
Cc1cc(SC2=C(O)C[C@@](CCc3ccc(O)cc3)(C(C)C)OC2=O)c(C(C)(C)C)cc1CO

>  <RECORDED ENDPOINT>
CC50

>  <RESULT UNITS>
µM

>  <SIGN QUALIFIER>
>

>  <RECORDED NUMBER>
100

$$$$
>  <COMPOUND>
Cc1cc(SC2=C(O)CC(CCc3ccc(N)cc3)(C(C)C)OC2=O)c(C(C)(C)C)cc1OS(=O)(=O)c1ccc(C#N)cc1 (centres unmarked)

>  <RECORDED ENDPOINT>
CC50

>  <RESULT UNITS>
µM

>  <SIGN QUALIFIER>
=

>  <RECORDED NUMBER>
53

$$$$
>  <COMPOUND>
Cc1cc(SC2=C(O)CC(CCc3ccc(O)cc3)(CCc3ccc(O)cc3)OC2=O)c(C(C)(C)C)cc1OS(=O)(=O)N1CCN(C)CC1

>  <RECORDED ENDPOINT>
CC50

>  <RESULT UNITS>
µM

>  <SIGN QUALIFIER>
=

>  <RECORDED NUMBER>
66

$$$$
>  <COMPOUND>
COc1cc(CCC2(CCc3ccc(O)c(OC)c3)CC(O)=C(Sc3cc(C)c(OCCO)cc3C(C)(C)C)C(=O)O2)ccc1O

>  <RECORDED ENDPOINT>
CC50

>  <RESULT UNITS>
µM

>  <SIGN QUALIFIER>
=

>  <RECORDED NUMBER>
61

$$$$
